- assay_target: Cytochrome P450 2C9 (Homo sapiens)
- assay_summary: Cytochrome P450 Family 2 Subfamily C Member 9 (CYP2C9) small molecule antagonists: luciferase reporter qHTS assay (AID 1671198); note: nearly all actives have a fitted effect of over 50% in size
- test_parameters: P450-Glo CYP2C9 enzyme assay, luciferin luminescence; series mostly up to 115 µM
- From the text: U.S. Tox21 Program National Center for Advancing Translational Sciences [NCATS] U.S. Environmental Protection Agency [EPA] National Institutes of Environmental Health Sciences [NIEHS] National Toxicology Program [NTP] U.S. Food and Drug Administration [FDA] […] The luciferin products formed are detected with a luciferin detection reagent, and the amount of light produced is proportional to CYP activity. […]
Results filed as inconclusive are left out. Active and inactive are the calls of the source. Calls come from the whole dose curve; as a rule, active = well fitted inhibition curve with a large enough effect in the repeat runs; inconclusive = weak or mixed curves; inactive = no such curve, though single readings can be large or run the other way.
Hi there, use one of these labels in your reply, thanks! active, inactive

>>> df
                                   compound  class_assignment
0          Cc1ccc(Cl)c(Nc2ccccc2C(=O)O)c1Cl            active
1                       CC(C)(C)C(=O)C(=O)O          inactive
2  O=C(CCCN1CC=C(n2c(=O)[nH]c3ccccc32)CC1)c1ccc(F)cc1          inactive
3      O=C(O)C[C@H](NC(=O)OCc1ccccc1)C(=O)O          inactive
4                     Oc1c(I)cc(I)c2cccnc12          inactive

Turning now to a further compound:
Called result for CC1CC(OC(=O)C(O)c2ccccc2)CC(C)(C)N1C (stereo unspecified)
inactive

----------
- assay_target: Estrogen receptor (Homo sapiens) (UniProt P03372)
- Sequence (P03372 whole entry, looked up): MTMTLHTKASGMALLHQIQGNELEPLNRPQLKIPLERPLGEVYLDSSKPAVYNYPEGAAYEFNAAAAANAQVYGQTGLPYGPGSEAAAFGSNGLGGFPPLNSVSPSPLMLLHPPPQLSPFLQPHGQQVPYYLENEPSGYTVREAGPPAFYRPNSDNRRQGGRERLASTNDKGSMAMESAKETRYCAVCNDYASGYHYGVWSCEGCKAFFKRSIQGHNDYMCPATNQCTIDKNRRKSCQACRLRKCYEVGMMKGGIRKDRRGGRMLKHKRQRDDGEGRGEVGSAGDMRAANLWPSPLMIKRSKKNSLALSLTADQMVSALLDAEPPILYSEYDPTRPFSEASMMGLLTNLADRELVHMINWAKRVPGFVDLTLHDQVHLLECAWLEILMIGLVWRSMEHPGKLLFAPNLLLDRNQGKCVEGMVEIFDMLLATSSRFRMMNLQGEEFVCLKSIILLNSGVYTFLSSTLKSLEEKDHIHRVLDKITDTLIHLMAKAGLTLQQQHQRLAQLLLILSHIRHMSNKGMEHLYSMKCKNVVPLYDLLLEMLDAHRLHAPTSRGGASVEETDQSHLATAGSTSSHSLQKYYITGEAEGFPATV
- assay_summary: qHTS assay to identify small molecule agonists of the estrogen receptor alpha (ER-alpha) signaling pathway (AID 743075);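 note: HEK293 GripTite cells with ER-alpha and UAS-driven beta-lactamase reporter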
- test_parameters: HEK293 ER-alpha-UAS-bla, beta-lactamase FRET ratio, 18 h; series mostly up to 70.1 µM
Results filed as inconclusive are left out. Active and inactive are the calls of the source. Calls come from the whole dose curve.
# output must be one of active, inactive

Use these answered entries as a reference point.
                                   compound  class_assignment
0  CN1CCCC(n2nc(Cc3ccc(Cl)cc3)c3ccccc3c2=O)CC1 (stereo not drawn)          inactive
1  Cc1c(C)c2c(c(C)c1OC(=O)CCC(=O)OCCO)CC[C@@](C)(CCC[C@H](C)CCC[C@H](C)CCCC(C)C)O2          inactive
2  CCC(=O)C1CC(C(C)C)CC=C1C (stereo not drawn)          inactive

Check the results log: what was the call for "CCCCCC#CC(=O)OC" ?
inactive

Recorded test outcome, item "CCC(C)(C)OC"
active

----------
- assay_summary: qHTS assay to identify small molecule agonists of the farnesoid-X-receptor (FXR) signaling pathway - cell viability counter screen (AID 743218); note: nearly all actives have a fitted effect of over 45% in size
- test_parameters: FXR-bla HEK293T viability, CellTiter-Glo luminescence, 16 h; series mostly up to 62.6 µM
Inconclusive results are not listed. Active and inactive are the calls of the source. Calls follow the shape of the dose curve; as a rule, active = well fitted cell-killing curve with a large enough effect in the repeat runs; inconclusive = weak or mixed curves, or effect the other way; inactive = no such curve, though single readings can be large or run the other way.
Hi there, use one of these labels in your reply, thanks! active, inactive

Worked cases, answers included:
>>> print(df.to_string())
                                   compound  class_assignment
0  CC(=O)Nc1cc(S(=O)(=O)O)cc2cc(S(=O)(=O)O)c(N=Nc3ccccc3)c(O)c12          inactive
1  CCC(=O)C1CC(C(C)C)CC=C1C (stereo not drawn)          inactive
2                           Cc1cc(C)cc(N)c1          inactive

// switching to the query compound
Answer briefly: the call reported for "CC(=O)NC1(c2cccc(F)c2)CCN(CC[C@@]2(c3ccc(Cl)c(Cl)c3)CN(c3ccccc3)C(=O)CO2)CC1" in this assay.
active
